method_notes: determination of the lethal dose 50 (LD50) in the mouse
Format: in vivo
measurement_parameters: in vivo, doses 30, 300 and 450 mg/kg, 48 h
outcome_measure: LD50 at 48 h

## Input I have this compound here, CNc1nc2ccccc2n2c(CCc3ccccc3)cnc12 , and I need its recorded LD50 at 48 h.
## Output > 450 mg/kg

====

method_notes: in vivo
measurement_parameters: rat, iv, 5 mg/kg
outcome_measure: Vd (L/kg)
Provide only the numeric value, understood in L/kg.

## Input I have this compound here, CNc1nc2ccccc2n2c(-c3cccc(OC)c3)cnc12 , and I need its recorded Vd.
## Output 5.6

## Input I have this compound here, CNc1nc2ccccc2n2c(CCc3ccccc3)cnc12 , and I need its recorded Vd.
## Output 10.6

====

Tested on: A375 melanoma
method_notes: in vitro cytotoxicity (antiproliferative activity) on A375 melanoma line
Format: cell-based, human
measurement_parameters: Homo sapiens, A-375, read-out: IC50 A375
outcome_measure: pIC50
# pIC50 = -log10(concentration in molar units)

## Input I have this compound here, CCOP(=O)(OCC)C(C)NC(=O)N(CCCl)N=O (stereo not shown) [Fotemustine, fotemustine, reference compound] , and I need its recorded pIC50.
## Output 3.76

====

Tested on: Raji (B lymphoma)
method_notes: in vitro cytotoxicity on Raji B lymphoma line
Assay type: cell-based, human
measurement_parameters: Homo sapiens, Raji; Table 2; unit inferred
outcome_measure: pIC50
# pIC50 = -log10(concentration in molar units)

## Input I have this compound here, CNc1nc2ccccc2n2c(CCc3ccccc3)cnc12 , and I need its recorded pIC50.
## Output 5.21

## Input I have this compound here, CC(C)Cn1cnc2c(N)nc3ccccc3c21 , and I need its recorded pIC50.
## Output 3.86

Every entry's value here was drawn from patent US8378098B2.
